These measurements were taken from ChEMBL document CHEMBL3885861.

# Species: Rattus norvegicus
# assay.summary: Open TG-GATES - Regimen: Daily Repeat
# Format: toxicity, organism-based, Sprague-Dawley
# Design: regimen Daily Repeat, gender Male, age 6 weeks
# test.conditions: in vivo, po, 1000 mg/kg, […], tissue Kidney, route gavage, dose level High, time 7 day

| compound | KIDNEY_R |
| --- | --- |
| CNC(=C[N+](=O)[O-])NCCSCc1ccc(CN(C)C)o1 [RANITIDINE] | 1.2 g |
| CN/C(=N/CCSCc1nc[nH]c1C)NC#N [CIMETIDINE] | 1.1 g |
| COC(=O)C1=C(C)NC(C)=C(C(=O)OC)C1c1ccccc1[N+](=O)[O-] [NIFEDIPINE] | 0.9 g |
| O=C(OC[C@H]1O[C@@H](OC(=O)c2cc(O)c(O)c(OC(=O)c3cc(O)c(O)c(O)c3)c2)[C@H](OC(=O)c2cc(O)c(O)c(OC(=O)c3cc(O)c(O)c(O)c3)c2)[C@@H](OC(=O)c2cc(O)c(O)c(OC(=O)c3cc(O)c(O)c(O)c3)c2)[C@@H]1OC(=O)c1cc(O)c(O)c(OC(=O)c2cc(O)c(O)c(O)c2)c1)c1cc(O)c(O)c(OC(=O)c2cc(O)c(O)c(O)c2)c1 [TANNIC ACID] | 1.1 g |
| Cc1nnc2n1-c1ccc(Cl)cc1C(c1ccccc1Cl)=NC2 [TRIAZOLAM] | 1.1 g |
| CCOc1ccc(NC(C)=O)cc1 [PHENACETIN] | 1.1 g |
